Each recorded value in this set is attributed to paper PMC9694544.

- experiment_description: clinical
- cond: human, in vivo, cycle 1 day 28 of dose-escalation phase, 450 mg (n=3), mean; read-out: AUCINF_obs
measurement_kind: AUC(0-inf) (ng·h/mL)
# number only, unit ng·h/mL dropped from output

Given item COc1cc(N2CCC(N3CCN(C)CC3)CC2)ccc1Nc1nc2c(c(Nc3ccccc3S(=O)(=O)NC(C)C)n1)CCN2 [Conteltinib] , the value recorded as its AUC(0-inf) is 34400

###

- experiment_description: clinical
- cond: human, in vivo, single dose, PK lead-in phase of dose-escalation phase, 100 mg (n=3), mean; read-out: AUCINF_obs
measurement_kind: AUC(0-inf) (ng·h/mL)
Number in ng·h/mL, nothing else.

Sample COc1cc(N2CCC(N3CCN(C)CC3)CC2)ccc1Nc1nc2c(c(Nc3ccccc3S(=O)(=O)NC(C)C)n1)CCN2 ; AUC(0-inf) observed: 1050

###

- assayed_target: ALK F1174L (Homo sapiens, UniProt Q9UM73, F1174L)
- experiment_description: ALK enzymatic IC50, F1174L
measurement_kind: pIC50
Scale note: pIC50 = -log10(concentration in M).

# pIC50 (compound: COc1cc(N2CCC(N3CCN(C)CC3)CC2)ccc1Nc1nc2c(c(Nc3ccccc3S(=O)(=O)NC(C)C)n1)CCN2 ) is 8.37

###

- experiment_description: clinical
- cond: human, in vivo, single dose, PK lead-in phase of dose-escalation phase, 200 mg (n=3), mean
measurement_kind: MRT last (h)
// units = h; emit number, no label

Memo: COc1cc(N2CCC(N3CCN(C)CC3)CC2)ccc1Nc1nc2c(c(Nc3ccccc3S(=O)(=O)NC(C)C)n1)CCN2 [Conteltinib] , reported MRT last: 47.4

###

- experiment_description: clinical
- cond: human, in vivo, single dose, PK lead-in phase of dose-escalation phase, 200 mg (n=3), mean; read-out: Cmax
measurement_kind: Cmax (ng/mL)
Expressed in ng/mL, but write only the number.

Cmax recorded for this compound, COc1cc(N2CCC(N3CCN(C)CC3)CC2)ccc1Nc1nc2c(c(Nc3ccccc3S(=O)(=O)NC(C)C)n1)CCN2 [Conteltinib] , is 140

###

- experiment_description: clinical
- cond: human, in vivo; cycle 1 day 28 of dose-expansion phase, 600 mg (n=10), mean
measurement_kind: MRT last

Sure, the documented MRT last for COc1cc(N2CCC(N3CCN(C)CC3)CC2)ccc1Nc1nc2c(c(Nc3ccccc3S(=O)(=O)NC(C)C)n1)CCN2 is 10.9 h

###

- experiment_description: clinical
- cond: human, in vivo, 600 mg, single dose, cycle 1 day 1 of dose-expansion phase, 600 mg (n=10), mean
measurement_kind: AUC(0-t) (ng·h/mL)
Kindly answer with a numeric value in ng·h/mL, unit omitted.

// COc1cc(N2CCC(N3CCN(C)CC3)CC2)ccc1Nc1nc2c(c(Nc3ccccc3S(=O)(=O)NC(C)C)n1)CCN2 [Conteltinib] : AUC(0-t) value = 4610

###

- experiment_description: clinical
- cond: human, in vivo, 100 mg, cycle 1 day 28 of dose-expansion phase, 100 mg (n=5), mean
measurement_kind: AUC(0-t) (ng·h/mL)
// units = ng·h/mL; emit number, no label

The compound COc1cc(N2CCC(N3CCN(C)CC3)CC2)ccc1Nc1nc2c(c(Nc3ccccc3S(=O)(=O)NC(C)C)n1)CCN2 [Conteltinib] showed AUC(0-t) equal to 1710

###

- experiment_description: clinical
- cond: human, in vivo, single dose, PK lead-in phase of dose-escalation phase, 300 mg (n=3), mean
measurement_kind: MRT last
Number plus unit, in that order.

Input COc1cc(N2CCC(N3CCN(C)CC3)CC2)ccc1Nc1nc2c(c(Nc3ccccc3S(=O)(=O)NC(C)C)n1)CCN2 [Conteltinib] . Output MRT last: 46.2 h

###

- experiment_description: clinical
- cond: human, in vivo, single dose, PK lead-in phase of dose-escalation phase, 200 mg (n=3), mean; read-out: Tmax
- Description: For single-dose PK parameters, plasma samples were taken at pre-dose and 0.5 h, 1 h, 2 h, 3 h, 4 h, 6 h, 8 h, 12 h, 24 h, 48 h, 72 h, 96 h, 120 h, 144 h, and 168 h post-dose in PK lead-in phase of dose-escalation phase, and plasma samples were also taken at pre-dose and 0.5 h, 1 h, 2 h, 3 h, 4 h, 6 h, 8 h, 12 h, and 24 h post-dose in cycle 1 day 1 of dose-expansion phase. […]
measurement_kind: Tmax (h)
Field: numeric (h). Do not append units.

For reference, reported Tmax for COc1cc(N2CCC(N3CCN(C)CC3)CC2)ccc1Nc1nc2c(c(Nc3ccccc3S(=O)(=O)NC(C)C)n1)CCN2 stands at 2.7

###

- experiment_description: clinical
- cond: human, in vivo, 450 mg, cycle 1 day 28 of dose-expansion phase, 450 mg (n=10), mean
measurement_kind: MRT last (h)
// return numeric value only (unit: h, not printed)

Sample COc1cc(N2CCC(N3CCN(C)CC3)CC2)ccc1Nc1nc2c(c(Nc3ccccc3S(=O)(=O)NC(C)C)n1)CCN2 ; MRT last observed: 10.5

###

- experiment_description: clinical
- cond: human, in vivo, 100 mg, cycle 1 day 28 of dose-expansion phase, 100 mg (n=5), mean; read-out: AUCINF_obs
measurement_kind: AUC(0-inf) (ng·h/mL)
Numbers only; they are read as ng·h/mL.

So, COc1cc(N2CCC(N3CCN(C)CC3)CC2)ccc1Nc1nc2c(c(Nc3ccccc3S(=O)(=O)NC(C)C)n1)CCN2 ? Its AUC(0-inf) was 6460

###

- assayed_target: ALK G1269S (Homo sapiens, UniProt Q9UM73, G1269S)
- experiment_description: ALK enzymatic IC50, G1269S
measurement_kind: IC50 (nM)
Quick note: give the figure in nM, leave out the unit.

Record COc1cc(N2CCC(N3CCN(C)CC3)CC2)ccc1Nc1nc2c(c(Nc3ccccc3S(=O)(=O)NC(C)C)n1)CCN2 [Conteltinib] has ALK G1269S (Homo sapiens, UniProt Q9UM73, G1269S) IC50 equal to 8.4

###

- experiment_description: clinical
- cond: human, in vivo, cycle 1 day 28 of dose-escalation phase, 800 mg (n=2), mean; read-out: Cmax
measurement_kind: Cmax

Form field Cmax, entry COc1cc(N2CCC(N3CCN(C)CC3)CC2)ccc1Nc1nc2c(c(Nc3ccccc3S(=O)(=O)NC(C)C)n1)CCN2 : 305 ng/mL

###

- experiment_description: clinical
- cond: human, in vivo, 600 mg, cycle 1 day 28 of dose-expansion phase, 600 mg (n=10), mean; read-out: AUCINF_obs
- Method: For single-dose PK parameters, plasma samples were taken at pre-dose and 0.5 h, 1 h, 2 h, 3 h, 4 h, 6 h, 8 h, 12 h, 24 h, 48 h, 72 h, 96 h, 120 h, 144 h, and 168 h post-dose in PK lead-in phase of dose-escalation phase, and plasma samples were also taken at pre-dose and 0.5 h, 1 h, 2 h, 3 h, 4 h, 6 h, 8 h, 12 h, and 24 h post-dose in cycle 1 day 1 of dose-expansion phase. […]
measurement_kind: AUC(0-inf) (ng·h/mL)
Reply with just the number (in ng·h/mL).

response.value for COc1cc(N2CCC(N3CCN(C)CC3)CC2)ccc1Nc1nc2c(c(Nc3ccccc3S(=O)(=O)NC(C)C)n1)CCN2 (field: AUC(0-inf)) = 32500

###

- experiment_description: clinical
- cond: human, in vivo, 600 mg, cycle 1 day 28 of dose-expansion phase, 600 mg (n=10), mean; read-out: T1/2 (converted)
measurement_kind: half-life (h)
Respond with the bare value in h.

half-life in this record for COc1cc(N2CCC(N3CCN(C)CC3)CC2)ccc1Nc1nc2c(c(Nc3ccccc3S(=O)(=O)NC(C)C)n1)CCN2 [Conteltinib] : 37.1

###

- experiment_description: clinical
- cond: human, in vivo, cycle 1 day 28 of dose-escalation phase, 600 mg (n=7), mean
measurement_kind: MRT last (h)
State the answer as a number, implicitly in h.

For COc1cc(N2CCC(N3CCN(C)CC3)CC2)ccc1Nc1nc2c(c(Nc3ccccc3S(=O)(=O)NC(C)C)n1)CCN2 the compound record lists MRT last as 10.8

###

- experiment_description: clinical
- cond: human, in vivo, 450 mg, cycle 1 day 28 of dose-expansion phase, 450 mg (n=10), mean
measurement_kind: AUC(0-t) (ng·h/mL)
Give a bare numeral; the unit ng·h/mL is implied.

AUC(0-t) for COc1cc(N2CCC(N3CCN(C)CC3)CC2)ccc1Nc1nc2c(c(Nc3ccccc3S(=O)(=O)NC(C)C)n1)CCN2 [Conteltinib] is 7040

###

- experiment_description: clinical
- cond: human, in vivo, 600 mg, single dose, cycle 1 day 1 of dose-expansion phase, 600 mg (n=10), mean
- Method: For single-dose PK parameters, plasma samples were taken at pre-dose and 0.5 h, 1 h, 2 h, 3 h, 4 h, 6 h, 8 h, 12 h, 24 h, 48 h, 72 h, 96 h, 120 h, 144 h, and 168 h post-dose in PK lead-in phase of dose-escalation phase, and plasma samples were also taken at pre-dose and 0.5 h, 1 h, 2 h, 3 h, 4 h, 6 h, 8 h, 12 h, and 24 h post-dose in cycle 1 day 1 of dose-expansion phase. […]
measurement_kind: MRT last (h)
Respond numerically; units are h and should not be typed.

Quick note, MRT last for COc1cc(N2CCC(N3CCN(C)CC3)CC2)ccc1Nc1nc2c(c(Nc3ccccc3S(=O)(=O)NC(C)C)n1)CCN2 landed at 9.8
